From: patent US20250304658A1

Assignment: determine reported EC50, pseudovirus neutralization for the given binders.
- target_entity: BK virus VP1 protein, genotype I (BK virus) (UniProt P03088)
- measurement_notes: cell-based or functional assay
Give just the number in nM; leave the unit off.

Query: Can you look up the measured EC50, pseudovirus neutralization of 1E2 (antibody, V domains shown) VH: QVQLVESGGDLVKPGGSLRLSCVASGFTFSDYYMNWIRLPPGKGLEWVSYIDSSAGAIYYADSVRGRFTVSRDDAKNSLFLHMNSLRADDTAVYYCARERRDGHKIFDCWGPGTLVTVSS VL: DIVMTQSPDSLAVSLGERATINCKSSQNILYSSNNKNYLAWYQQKAGQPPKLLIFWSSTRESGVPDRFSGSGSGTDFTLTINSLQAEDVAVYYCQQYYSSPYNFGRGTTLEIK for me?
Reply: 0.059

Query: How about this binder: 8D10 (antibody, V domains shown) VH: QVHLVESGGDLVKPGGSLRLSCVASGFTFSDYYMNWIRLPPGKGLEWISYIDSSAGAIYYADSVKGRFTVSRDDAKNSMFLHMNSLRADDTAVYYCARERRDGHKIFDYWGPGTLVTVSS VL: DIVMTQSPDSLAVSLGERATINCKSSQNILYSSNNKNYLAWYQQKAGQPPKLLIFWSSTRESGVPDRFSGSGSGTDFTLTISSLQAEDVAVYYCQQYYSSPYNFGRGTTLEIK
Reply: 0.0629

Query: Same again, this time with 14F5 (antibody, V domains shown) VH: EVQLLESGGGLVQPGGSLRLSCAVSGFTFSSFAMSWVRQAPGKGLEWVSGISASGGTTNYADSVKGRFTISRDNSKNTLYLQMSSLRAEDTAEYYCAKDRFLEWVEGFDPWGQGILVTVSP VL: DIQMTQSPSSLSASVGDRVTITCRASQSIGRFLIWYQQKPGKAPKLLLYATSSLQSGVPARFTGSGSGTDFTLTIGSLQPEDFATYYCQQSYITPLTFGGGTKVEIK
Reply: 0.0101

Query: Try the binder 8A11 (antibody, V domains shown) VH: QVQLVESGGDLVKPGGSLRLSCVASGFTFSDYYMNWIRLPPGKGLEWISYIDSSAGATYYADSVKGRFTVSRDDAKNSLFLHMNSLRAEDTAVYYCARERRSGHKIFDCWGPGTLVTVSS VL: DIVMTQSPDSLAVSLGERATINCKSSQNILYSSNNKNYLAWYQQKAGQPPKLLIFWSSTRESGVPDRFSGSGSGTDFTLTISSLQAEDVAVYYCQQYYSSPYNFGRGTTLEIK
Reply: 0.108

Query: Further, for 4F7 (antibody, V domains shown) VH: QVQLVESGGDLVKPGGSLRLSCVASGFTFSDYYMNWIRLPPGKGLEWISYIDSSAGAIYYADSVKGRFTVSRDDAKNSLFLHMNNLRADDTAVYYCARERRDGHKIFDCWGPGTLVTVSS VL: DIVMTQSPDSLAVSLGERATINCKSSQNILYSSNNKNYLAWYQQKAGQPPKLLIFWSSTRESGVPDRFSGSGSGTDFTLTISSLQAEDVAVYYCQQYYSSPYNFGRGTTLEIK ?
Reply: 0.0325
